# Test system: UACC-62 melanoma
# test.protocol: NCI tumour cell line growth inhibition, 48 h
measured.property: GI50

What value of measured GI50 is listed for `CC1=CC[C@@H]2C(C)(C)[C@@H](O)CC[C@@]2(C)[C@@H]1COc1ccc2ccc(=O)oc2c1` ? 3520 nM

What value of measured GI50 is listed for `Cc1ccc(-c2cc3nc(-c4ccccc4)nc(C(Cl)Cl)n3n2)cc1` ? 933 nM

What value of measured GI50 is listed for `CN(C)CCNc1cccc2sc3ccc(O)cc3c(=O)c12` ? 1430 nM

* * *

# System: DU-145 prostate
Exercise: state measured GI50 for each of the molecules provided.

What value of measured GI50 is listed for `O=C1C=C(c2cc(Br)c(O)c(Br)c2)/C(=C/c2cc(Br)c(O)c(Br)c2)O1` ? 31.7 µM

What value of measured GI50 is listed for `O=Nc1c2cccnc2n2nnc3ccc(Cl)cc3c12` ? 0.893 µM

What value of measured GI50 is listed for C=C(CNCCO)[C@@H]1CC[C@]2(CO)CC[C@]3(C)[C@H](CC[C@@H]4[C@@]5(C)CCC(NCCc6ccc(O)cc6)C(C)(C)[C@@H]5CC[C@]43C)[C@@H]12 (stereo partly specified) ? 1.6 µM

What value of measured GI50 is listed for `CCOC(=O)/C(C1=CC(=O)C(=O)c2ccccc21)=C(/C)NCc1ccccc1` ? 1.79 µM

What value of measured GI50 is listed for `CCOC(=O)/C=C/c1ccc(C(=O)OCC)[nH]1` ? 3.41 µM

What value of measured GI50 is listed for `Cc1ccc2c(c1)sc(-c1ccc(N(C)C)cc1)[n+]2C` ? 1.95 µM

What value of measured GI50 is listed for `Nc1ccc2c(c1)[O][Sn]([c]1ccccc1)([c]1ccccc1)[O]C2=O` ? 15.5 µM

What value of measured GI50 is listed for `CCN(CC)C(=S)SSC1CCCCC1` ? 20.3 µM

What value of measured GI50 is listed for CCCCS(=N)(=O)CC[C@H](N)C(=O)O (stereo partly specified) ? > 10000 µM

What value of measured GI50 is listed for `CCCCc1cc(O)ccc1O` ? 80.7 µM

What value of measured GI50 is listed for `O=C(N/N=C/c1ccc(F)cc1)c1[nH]c2ccc(I)cc2c1-c1ccccc1` ? 0.479 µM

* * *

Exercise: state measured TGI for each of the molecules provided.
# Test system: LXFL 529 NSCLC
# test.protocol: NCI tumour cell line growth inhibition, 48 h

// fetch LXFL 529 NSCLC TGI for `O=C(O)c1[nH]c(C(=O)O)c(CC(F)(F)C(F)(F)C(F)(F)F)c1CC(F)(F)C(F)(F)C(F)(F)F` > 100 µM

// fetch LXFL 529 NSCLC TGI for `Cc1c2ncccc2c(C)c2c1[nH]c1ccccc12` 24.8 µM

// fetch LXFL 529 NSCLC TGI for COC(=O)C12C3C4C1C1C2C3C41I (stereo not given) > 100 µM

// fetch LXFL 529 NSCLC TGI for `COc1ccc(/C=[N+](\[O-])[C@H](COCc2ccccc2)c2ccccc2)cc1` > 100 µM

// fetch LXFL 529 NSCLC TGI for `COc1ccc2c(C3(O)CCNCC3)c[nH]c2c1` > 100 µM

* * *

# System: SK-MEL-5 melanoma
# test.protocol: NCI tumour cell line growth inhibition, 48 h
Exercise: state measured TGI for each of the molecules provided.
Just the number in µM, nothing appended.

What value of measured TGI is listed for COC(=O)C(Cc1ccccc1)NC(=O)CNC(=O)CSc1nnc(COc2ccc(Cl)cc2)n1-c1ccccc1 (stereo unspecified) ? 29.8

What value of measured TGI is listed for NC1CCC(c2cc3ccccc3s2)(N2CCCCC2)CC1 (stereo unspecified) ? 4.16

What value of measured TGI is listed for `c1cc(-c2sc(-c3ccncc3)c(-c3ccncc3)c2-c2ccncc2)ccn1` ? 28.6

What value of measured TGI is listed for COC1C(O)=C2C(=O)OC(C)(O)/C=C/C=C\C=C/C=C/C(c3ccccc3)NC(=O)/C=C/C=C/C=C/C=C/C2(C)C1O (stereo unspecified) ? 0.164

What value of measured TGI is listed for `CCCCNC(=S)Nc1nc(C(=O)NNS(=O)(=O)c2ccccc2)cs1` ? 31

What value of measured TGI is listed for `c1ccc(COc2ccc3[nH]c4c(ncc5[nH]c6ccccc6c54)c3c2)cc1` ? 30

What value of measured TGI is listed for `NS(=O)(=O)c1ccc(/C=C/c2cccc(O)c2)cc1` ? 48.4

What value of measured TGI is listed for `O=C(N/N=C/c1ccc(F)cc1)c1[nH]c2ccc(I)cc2c1-c1ccccc1` ? 2.52

What value of measured TGI is listed for OC1CCC(Oc2cccc3cnc(Nc4ccc5nc[nH]c5c4)nc23)CC1 (stereo unspecified) ? 6.51

What value of measured TGI is listed for `Cn1nnnc1[N-]Cc1ccccc1.[Au+].c1ccc([PH+](c2ccccc2)c2ccccc2)cc1` ? 3.6

* * *

# Test system: NCI-H522 lung
# test.protocol: NCI tumour cell line growth inhibition, 48 h
measured.property: TGI

// fetch NCI-H522 lung TGI for `COc1ccc(/C=[N+](\[O-])[C@H](COCc2ccccc2)c2ccccc2)cc1` > 100 µM

// fetch NCI-H522 lung TGI for `O=C(/C=C/c1ccc([N+](=O)[O-])o1)NNC(=O)c1cc2ccccc2cc1O` 2.03 µM

// fetch NCI-H522 lung TGI for `O=Nc1c2cccnc2n2nnc3ccc(Cl)cc3c12` 3.38 µM

// fetch NCI-H522 lung TGI for `CCCCNC(=S)Nc1nc(C(=O)NNS(=O)(=O)c2ccccc2)cs1` > 100 µM

// fetch NCI-H522 lung TGI for `COc1ccc(N=Cc2ccc(N(CCC#N)CCC#N)cc2)cc1` > 100 µM

// fetch NCI-H522 lung TGI for COc1cccc2c1C1=CC(=O)CCC1C(C)(C)O2 (stereo unspecified) > 100 µM

// fetch NCI-H522 lung TGI for `CC1(C)N=C(N)N=C(N)N1c1cccc(CSc2ccccc2)c1` 27.3 µM

// fetch NCI-H522 lung TGI for `O=C(CSC1=NCCN1)c1ccccc1` > 100 µM

// fetch NCI-H522 lung TGI for S=C1CC(c2ccc(Cl)cc2)Sc2ccccc2N1 (stereo unspecified) > 100 µM

// fetch NCI-H522 lung TGI for `COc1ccc2nc3c([N+](=O)[O-])ccc4c3c(c2c1)NCCN4C` 3.31 µM

// fetch NCI-H522 lung TGI for `COc1cc2ccc3c4cc(OC)c(OCc5ccccc5)cc4cnc3c2cc1OC` > 100 µM

* * *

# Tested on: CCRF-CEM leukemia
# test.protocol: NCI tumour cell line growth inhibition, 48 h
measured.property: TGI

What value of measured TGI is listed for `COc1cc2[nH]c(-c3ccccc3)cc(=O)c2cc1OC` ? > 65.6 µM

What value of measured TGI is listed for `Cc1ccc(N2C(=O)C(Cl)=C(Nc3cccc(O)c3)C2=O)cc1Cl` ? 46.8 µM

What value of measured TGI is listed for `Cc1nc2ccccc2n1CCc1nc2ccccc2s1` ? > 100 µM

What value of measured TGI is listed for COC(=O)C12C3C4C1C1C2C3C41I (stereo unspecified) ? > 100 µM

What value of measured TGI is listed for `COc1ccc(-c2cc(-c3ccc(Nc4ccnc5cc(Cl)ccc45)cc3)nc(N)c2C#N)c2ccccc12` ? > 100 µM

What value of measured TGI is listed for `COc1ccc(N=C/C=C/Nc2ccc(OC)cc2)cc1` ? > 37.2 µM

* * *

# Test system: SK-OV-3 ovarian
# test.protocol: NCI tumour cell line growth inhibition, 48 h
measured.property: TGI

What value of measured TGI is listed for `Cc1ccc2c3c1O[C@H]1c4nc5ccccc5cc4C[C@@]4(O)[C@@H](C2)N(CC2CC2)CC[C@]314` ? 31.3 µM

What value of measured TGI is listed for `[Cl][Sn]([c]1ccccc1)[c]1ccccc1` ? 32.7 µM

What value of measured TGI is listed for `O=C(O)c1[nH]c(C(=O)O)c(CC(F)(F)C(F)(F)C(F)(F)F)c1CC(F)(F)C(F)(F)C(F)(F)F` ? > 100 µM

What value of measured TGI is listed for `CCCN(CCC)c1c([N+](=O)[O-])cc(S(N)(=O)=O)cc1[N+](=O)[O-]` ? 31.8 µM

What value of measured TGI is listed for `COc1ccc(CNc2nc3ccccc3nc2-c2cccs2)cc1` ? > 100 µM

What value of measured TGI is listed for `Cc1ccc(S(=O)(=O)NCCN2c3nc4ccccc4cc3Sc3cc4ccccc4nc32)cc1` ? 54.2 µM

What value of measured TGI is listed for NC(=O)c1ccccc1NC(=O)C(=O)C(c1cnc2ccc([N+](=O)[O-])cc2n1)[N+](=O)[O-] (centres undefined) ? > 100 µM

What value of measured TGI is listed for `CCCCCCCCOCC1S(=O)(=O)OCCOS1(=O)=O` ? > 100 µM

What value of measured TGI is listed for `CC[C@@]1(OC(=O)CCC(=O)O)C(=O)OCc2c1cc1n(c2=O)Cc2cc3ccccc3nc2-1` ? 14.2 µM
